# assay.procedure: Plasma protein binding, human
# experimental.setup: pH 7.4
measurement.name: fraction unbound at 5 h, 10 μM
# print the numeric value only

Prompt line: Annotate the compound CC(=O)CC(c1ccccc1)c1c(O)c2ccccc2oc1=O (stereo not shown) with its measured fraction unbound at 5 h, 10 μM.
Response line: 0.037

Source of measurements: paper PMC10354740
